Cited source for all entries: PubChem BioAssay (NCI)

Exercise: state measured growth for each of the compounds provided.
- Test system: SF-268 CNS
- METHOD NOTES: NCI-60 one-dose screen, 48 h (100 = growth as untreated, 0 = no growth, -100 = all killed)
- REPORTED CONDITIONS: 10 µM unless noted
About 83,000 compounds went through this panel and 20% of them were active in at least one assay; those are over-represented in the sample as a whole.
Give bare numbers, in %.

A selection of reference data follows.
Cn1cc(-c2cc(N)n3nc(-c4cn(C)c5ccc(Cl)cc45)cc3n2)c2cc(Cl)ccc21 : 78.8
CN(C)CCCNc1c2ccc(Cl)cc2nc2c1oc1ccccc12 : 23

Requested field: growth. Item: Cc1cc2nc3c4cc(Cl)ccc4n(CC(=O)NCCN(C)C)c3nc2cc1C 83

---

- Tested on: SF-539 CNS
- METHOD NOTES: NCI-60 one-dose screen, 48 h (100 = growth as untreated, 0 = no growth, -100 = all killed)
- REPORTED CONDITIONS: 10 µM unless noted
This is part of a sample that, as a whole, favours compounds with a hit. Of some 83,000 tested, about 20% had one in any assay.
The threshold is 50%. Values of growth beneath it are tagged TRUE; values meeting or exceeding it are tagged FALSE.

See these solved cases before continuing.
COc1cc(N=Cc2sc(Nc3nccs3)nc2O)cc(OC)c1OC : FALSE
C#Cc1nc(C2=C(C)C(O)CC2)cs1 (stereo not given) : FALSE
COC1CCN(Cc2ccc3c(NNC(=O)c4cnccn4)nc4cc(F)ccc4n23)C1 (stereo not given) : TRUE
CCCC(=O)NC(c1cccnc1)c1cc(C)c2cccnc2c1O (stereo not given) : TRUE
O=c1[nH]c2ccccc2cc1CSc1ccccc1Nc1nccc(-c2ccc(C(F)(F)F)cc2)n1 : TRUE

Does the reported growth of the following compound sit strictly below 50%? CCCCN1C(=O)/C(=c2\sc3n(c2=O)C2C(NN=3)N(CC)C(=O)N2CC)c2cc(Cl)ccc21 (stereo not given) FALSE

Does the reported growth of the following compound sit strictly below 50%? COc1ccc(/C=C2\SC(=Nc3cc(C)[nH]n3)NC2=O)cc1 FALSE

Does the reported growth of the following compound sit strictly below 50%? O=C(CSc1nccc(=O)[nH]1)Nc1ccc(-c2nc3ccccc3[nH]2)cc1 FALSE

Does the reported growth of the following compound sit strictly below 50%? CC(C)(C)Nc1nc2c(OCCc3ccccc3)cccn2c1-c1ccccc1Cl TRUE

Does the reported growth of the following compound sit strictly below 50%? Clc1ccc2oc3c(OCCCn4ccnc4)c4ccccc4nc3c2c1 FALSE

---

- Tested on: HCT-15 colon
- METHOD NOTES: NCI-60 one-dose screen, 48 h (100 = growth as untreated, 0 = no growth, -100 = all killed)
- REPORTED CONDITIONS: 10 µM unless noted
About 83,000 compounds went through this panel and 20% of them were active in at least one assay; those are over-represented in the sample as a whole.
MEASURED ATTRIBUTE: growth (%)
Numbers only, in %.

A selection of reference data follows.
N#Cc1nc(-c2ccccc2)oc1S(=O)(=O)N1CCCCC1 : -35.3
COc1cccc(-c2nn(-c3ccccc3)cc2-c2ccnc(N3CCN(C(=O)c4ccccc4)CC3)c2)c1 : 39.8

Dear reader, for each entry below, please note its growth.
1. CCOC(=O)c1sc(N)c(C(=O)OCC)c1C
2. COc1cc(/C=C/C(=O)c2cc(OC)c(OC)c(OC)c2)ccc1OCc1ccccc1
3. CCCC(=O)NC(c1ccc(N(CC)CC)cc1)c1cc(C)c2cccnc2c1O (stereo not given)

1: 45.4; 2: 13.3; 3: 29.5

---

- Test system: A498 renal
- METHOD NOTES: NCI-60 one-dose screen, 48 h (100 = growth as untreated, 0 = no growth, -100 = all killed)
- REPORTED CONDITIONS: 10 µM unless noted
Compounds without any hit were thinned out: in the full panel of roughly 83,000, 20% have a hit.
MEASURED ATTRIBUTE: growth (%)
Answers are plain numbers, in %.

O=C(c1ccc(O)cc1)C1[C@H](c2ccc(Cl)cc2)[C@@H](c2ccccc2)NC12C(=O)Nc1ccc(Cl)cc12 (stereo not given in full) : 50.8
Cc1nc(-c2cc3ccccc3oc2=O)ccc1C(=O)/C=C/c1ccc(Cl)c(Cl)c1 : 93.8
COc1ccc2[nH]cc(-c3cc(N)n4nc(-c5c[nH]c6ccc(OC)cc56)cc4n3)c2c1 : 83.1
CO/N=C1\CCc2c(sc(NC(=O)c3cccc(C(F)(F)F)c3)c2C(N)=O)C1 : -43.3
Cc1sc2c(c1C)c(=O)nc1c(-c3nc(-c4ccc(F)cc4)no3)n[nH]n12 : 98.6

Dear reader, for each entry below, please note its growth.
1. Clc1ccc2c(NCCCN3CCOCC3)c3oc4ccccc4c3nc2c1
2. O=C(Nc1nc2ccc(O)cc2s1)c1cccc(C(F)(F)F)c1

1. 33.7
2. 78.9

Dear reader, for each entry below, please note its growth.
1. CCN1C(=S)N(CC)C2C1NN=C1SC(c3ccccc3)=CC(=O)N12 (stereo not given)
2. N/C(=N\c1nc2c(Cl)cc(Cl)cc2s1)C(Cl)(Cl)Cl

1: 118; 2: -44.4

Requested field: growth. Item: CCOc1ccc2nc(NC(=O)c3ccc(C(F)(F)F)cc3)sc2c1 95.7

---

- Test system: IGROV1 ovarian
- METHOD NOTES: NCI-60 one-dose screen, 48 h
- REPORTED CONDITIONS: 10 µM unless noted
This is part of a sample that, as a whole, favours compounds with a hit. Of some 83,000 tested, about 20% had one in any assay. Activity calls are given as the source filed them. How the source made its calls: active means growth percent below 10; inactive means the rest.
Select the correct class. Options are active, inactive and nothing else.

CC(C)(C)Nc1nc2c(OCCc3ccccc3)cccn2c1-c1ccc(O)cc1 : inactive
NC(=O)c1c(NC(=O)c2ccc(C3CCCCC3)cc2)sc2c1CCC(=O)C2 : inactive
O=C(N/N=C/c1ccc([N+](=O)[O-])s1)c1[nH]c2ccc(Br)cc2c1-c1ccccc1 : inactive
C=CCn1c(SCC(=O)c2ccc(Br)cc2)nnc1-c1c[nH]c2ccccc12 : inactive
O=C1Nc2ccc(Cl)cc2/C1=C/c1ccc(OCC(=O)c2ccc(Br)cc2)cc1 : inactive
CCOc1ccc([C@H]2C(C(=O)c3ccc(Cl)cc3)C3(N[C@@H]2c2ccccc2)C(=O)Nc2ccc(Br)cc23)cc1 (stereo partly specified) : inactive

So what was the verdict on C#Cc1nc(C2=C(C)/C(=N/OCc3ccccc3)CC2)cs1 in this test? active

So what was the verdict on CCCC(=O)NC(c1cccc(N(C)C)c1)c1cc(C)c2cccnc2c1O (stereo unspecified) in this test? inactive

So what was the verdict on COc1ccc(-n2c(SCC(=O)Nc3ccc(-c4nc5ccccc5[nH]4)cc3)nc3ccccc3c2=O)cc1 in this test? inactive

So what was the verdict on CNC(=O)c1cc(-c2ccc(NC(=O)Nc3ccc(N4CCOCC4)c(C(F)(F)F)c3)cc2)nc2cccnc12 in this test? inactive

So what was the verdict on N[C@@H](Cc1cn(-c2ccnc3ccccc23)nn1)C(=O)O in this test? inactive

So what was the verdict on CCOC(=O)c1c(Nc2ccccc2)nn2c(N)c(C#N)c(-c3ccc(Cl)cc3)nc12 in this test? inactive

So what was the verdict on C/C(=N/NC(N)=S)c1ccc(Nc2nc(SCC(C)C)nc(-c3ccc(F)cc3)c2C#N)cc1 in this test? inactive

So what was the verdict on N#Cc1nc(-c2ccccc2)oc1N1CCC(CO)C1 (stereo unspecified) in this test? inactive

---

- Test system: MDA-MB-231 breast
- METHOD NOTES: NCI-60 one-dose screen, 48 h (100 = growth as untreated, 0 = no growth, -100 = all killed)
- REPORTED CONDITIONS: 10 µM unless noted
About 83,000 compounds went through this panel and 20% of them were active in at least one assay; those are over-represented in the sample as a whole.
Exercise: state measured growth for each of the molecules provided.
Answers are plain numbers, in %.

A selection of reference data follows.
CCOC(=O)c1c(Nc2ccccc2)nn2c(-c3ccco3)c(C#N)cnc12 : 80
CC(C)(C)Nc1nc2c(OCCc3ccccc3)cccn2c1-c1cccc(F)c1 : -40.9
N#Cc1c(-c2ccc(Cl)cc2)nc(SCc2ccc(F)cc2)nc1N1CCNCC1 : 16.2
Cc1cccc2sc(/N=C(\N)C(Br)Br)nc12 : 6.18
COC(=O)c1ccc(NC(=S)N2CCc3ccc([N+](=O)[O-])cc3C2)cc1O : 94.5

Dear reader, for each entry below, please note its growth.
1. O=C(CSc1nccc(=O)[nH]1)Nc1ccc(-c2nc3ccccc3[nH]2)cc1
2. COc1ccc(C(=O)/C=C/c2ccc(OCc3ccc(C)cc3)c(OC)c2)cc1OC
3. Nc1ncc(-c2ccc3ncnc(N4CCc5cc(F)c(Cl)cc54)c3c2)cc1CO
4. NS(=O)(=O)c1cccc(Nc2nc(SCC(=O)c3ccc(Br)cc3)nc3ccccc23)c1
5. CCOC(=O)c1sc(NCC(=O)Nc2cccc([N+](=O)[O-])c2)c(C(=O)OCC)c1C

1. 102
2. 59
3. 17
4. 64.5
5. -24.5
